# Target Or System: ICP8 (Infected Cell Polypeptide 8, HSV-1 SSB) (herpes simplex virus-1, UniProt P04296 1-1196)
# Sequence (P04296 whole entry): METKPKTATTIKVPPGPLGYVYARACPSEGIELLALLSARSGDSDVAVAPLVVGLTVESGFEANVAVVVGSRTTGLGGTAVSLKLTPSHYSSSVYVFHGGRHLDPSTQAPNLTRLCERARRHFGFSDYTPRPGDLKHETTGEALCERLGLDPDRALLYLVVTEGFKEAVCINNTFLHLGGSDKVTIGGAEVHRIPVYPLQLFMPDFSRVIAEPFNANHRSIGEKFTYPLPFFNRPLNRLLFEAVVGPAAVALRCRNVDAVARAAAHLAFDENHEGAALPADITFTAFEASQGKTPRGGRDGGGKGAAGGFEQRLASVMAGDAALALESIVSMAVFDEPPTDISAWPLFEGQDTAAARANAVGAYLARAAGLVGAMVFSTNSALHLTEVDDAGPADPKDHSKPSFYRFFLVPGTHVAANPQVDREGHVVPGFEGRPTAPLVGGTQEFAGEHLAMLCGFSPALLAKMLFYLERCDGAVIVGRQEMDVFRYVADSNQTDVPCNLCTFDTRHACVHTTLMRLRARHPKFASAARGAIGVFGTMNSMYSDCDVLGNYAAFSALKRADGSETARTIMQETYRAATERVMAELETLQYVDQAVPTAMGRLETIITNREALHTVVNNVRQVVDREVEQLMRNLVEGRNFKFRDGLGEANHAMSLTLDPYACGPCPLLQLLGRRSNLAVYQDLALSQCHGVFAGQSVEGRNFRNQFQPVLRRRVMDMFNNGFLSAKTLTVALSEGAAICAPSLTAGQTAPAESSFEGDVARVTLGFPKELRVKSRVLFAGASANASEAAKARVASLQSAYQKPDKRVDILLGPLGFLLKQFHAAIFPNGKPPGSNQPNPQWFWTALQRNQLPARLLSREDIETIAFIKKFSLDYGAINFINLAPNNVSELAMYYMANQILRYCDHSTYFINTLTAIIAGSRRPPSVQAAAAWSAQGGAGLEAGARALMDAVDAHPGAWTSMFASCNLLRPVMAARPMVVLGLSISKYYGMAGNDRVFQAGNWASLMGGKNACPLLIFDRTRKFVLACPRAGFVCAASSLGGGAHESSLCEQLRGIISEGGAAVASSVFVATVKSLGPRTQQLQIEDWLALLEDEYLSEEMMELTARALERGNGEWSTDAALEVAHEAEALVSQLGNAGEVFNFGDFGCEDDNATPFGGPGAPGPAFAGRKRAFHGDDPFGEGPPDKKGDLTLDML
# Test Name: thermal shift assay
Measure: Kd

1. TTTTTTTTTTTTTTTTTTTT (ssDNA) [(dT)20]
< 1000 nM
